Test Target: human MC4R receptor (human, UniProt P32245 1-332)
Sequence (P32245 whole entry): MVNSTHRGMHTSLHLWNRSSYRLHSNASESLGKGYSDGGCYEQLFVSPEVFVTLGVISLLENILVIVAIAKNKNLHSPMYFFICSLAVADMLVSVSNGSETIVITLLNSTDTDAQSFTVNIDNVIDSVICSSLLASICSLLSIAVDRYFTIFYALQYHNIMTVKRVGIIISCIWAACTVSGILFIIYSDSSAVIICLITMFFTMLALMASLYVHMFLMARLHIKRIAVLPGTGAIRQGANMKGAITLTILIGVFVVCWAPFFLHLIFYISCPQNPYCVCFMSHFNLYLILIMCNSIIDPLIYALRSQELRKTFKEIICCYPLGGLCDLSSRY
Procedure Summary: cell-based or functional assay
Starred links: 1 amine or outer side, 2 acyl side, 3 side chain; linkers in the order of their positions; H or OH if unused. Positions of bridges follow the written chain, without caps; N, C: chain ends. Non-standard residues stand in square brackets, D forms with d. Primed or numbered codes have the meaning given here. dTyr(4-OMe)″ = O-methyl-D-tyrosine, COc1ccc(C[C@@H](N[*:1])C(=O)[*:2])cc1; Cit = NC(=O)NCCC[C@H](N)C(=O)O; Aib = CC(C)(N)C(=O)O
Recorded Metric: % max activation (%)
Kindly answer with a numeric value in %, unit omitted.

Given item Ac-RC[Aib]R[dTyr(4-OMe)″]RFC-NH2 (disulfide 2-8) [CTX-1298] , the value recorded as its % max activation is 93

Given item Ac-RCAR[dF]RWC-NH2 (disulfide 2-8; SMILES CC(=O)N[C@@H](CCCNC(=N)N)C(=O)N[C@H]1CSSC[C@@H](C(N)=O)NC(=O)[C@H](Cc2c[nH]c3ccccc23)NC(=O)[C@H](CCCNC(=N)N)NC(=O)[C@@H](Cc2ccccc2)NC(=O)[C@H](CCCNC(=N)N)NC(=O)[C@H](C)NC1=O) [CTX-1267] , the value recorded as its % max activation is 96

Given item Ac-RC[dA][Cit][dF]RWC-NH2 (disulfide 2-8) [CTX-1285] , the value recorded as its % max activation is 94

Given item Ac-CGR[dF]RFC-NH2 (disulfide 1-7; SMILES CC(=O)N[C@H]1CSSC[C@@H](C(N)=O)NC(=O)[C@H](Cc2ccccc2)NC(=O)[C@H](CCCNC(=N)N)NC(=O)[C@@H](Cc2ccccc2)NC(=O)[C@H](CCCNC(=N)N)NC(=O)CNC1=O) [CTX-1638] , the value recorded as its % max activation is 110
